Taken from ChEMBL document CHEMBL1133105.

system: Leishmania infantum; assay: Percentage of activity against Leishmania infantum 6.25 uM; format: functional
measured-quantity: Antileishmanial activity (% reduction of parasite load) (%)
Answers are plain numbers, in %.

In the examples that follow, each entry is paired with its recorded Antileishmanial activity (% reduction of parasite load).
Input: Quick one: give measured Antileishmanial activity (% reduction of parasite load) for COc1ccc2nc3cc(Cl)ccc3c(NCCCN(CCCNc3c4ccc(Cl)cc4nc4ccc(OC)cc34)C(=O)C(CC(=O)O)NC(=O)OC(C)(C)C)c2c1 (centres undefined)
Output: 0

Input: Quick one: give measured Antileishmanial activity (% reduction of parasite load) for `COc1ccc2nc3cc(Cl)ccc3c(NCCCCCCCCNc3c4ccc(Cl)cc4nc4ccc(OC)cc34)c2c1`
Output: 95

Input: Quick one: give measured Antileishmanial activity (% reduction of parasite load) for COc1ccc2nc3cc(Cl)ccc3c(NCCCN(CCCNc3c4ccc(Cl)cc4nc4ccc(OC)cc34)C(=O)C(C)NC(=O)OC(C)(C)C)c2c1 (centres undefined)
Output: 95

Others:
Input: Quick one: give measured Antileishmanial activity (% reduction of parasite load) for `COc1ccc2nc3cc(Cl)ccc3c(NCCCN(CCCNc3c4ccc(Cl)cc4nc4ccc(OC)cc34)C(=O)CNC(=O)OC(C)(C)C)c2c1`
Output: 60

###

tested on: MRC5; assay: Cytotoxicity on MRC-5 cells at 3.13 uM; assay type: functional; settings: Homo sapiens
Decision: cytotoxicity at 3.13 µM beneath 40% gives 1 (yes); cytotoxicity at 3.13 µM meeting or exceeding 40% gives 0 (no).

Input: Bench note: check whether `COc1ccc2nc3cc(Cl)ccc3c(NCCCCCCCCNc3c4ccc(Cl)cc4nc4ccc(OC)cc34)c2c1` shows cytotoxicity at 3.13 µM below 40%
Output: 1 (yes)

Input: Bench note: check whether COc1ccc2nc3cc(Cl)ccc3c(NCCCN(CCCNc3c4ccc(Cl)cc4nc4ccc(OC)cc34)C(=O)C(CCCCNC(=O)OCC3c4ccccc4-c4ccccc43)NC(=O)OC(C)(C)C)c2c1 (stereo not drawn) shows cytotoxicity at 3.13 µM below 40%
Output: 1 (yes)

Input: Bench note: check whether COc1ccc2nc3cc(Cl)ccc3c(NCCCN(CCCNc3c4ccc(Cl)cc4nc4ccc(OC)cc34)C(=O)C(COCc3ccccc3)NC(=O)OC(C)(C)C)c2c1 (stereo not drawn) shows cytotoxicity at 3.13 µM below 40%
Output: 0 (no)

Input: Bench note: check whether `COc1ccc2nc3cc(Cl)ccc3c(NCCCN(CCCNc3c4ccc(Cl)cc4nc4ccc(OC)cc34)C(=O)CCN3CCOCC3)c2c1` shows cytotoxicity at 3.13 µM below 40%
Output: 0 (no)

Input: Bench note: check whether `COc1ccc2nc3cc(Cl)ccc3c(NCCCCCCCCCCCCNc3c4ccc(Cl)cc4nc4ccc(OC)cc34)c2c1` shows cytotoxicity at 3.13 µM below 40%
Output: 1 (yes)

Input: Bench note: check whether `COc1ccc2nc3cc(Cl)ccc3c(NCCCN(CCCNc3c4ccc(Cl)cc4nc4ccc(OC)cc34)C(=O)CCC(=O)N3CCOCC3)c2c1` shows cytotoxicity at 3.13 µM below 40%
Output: 1 (yes)

Proceed to the following item.
Input: Bench note: check whether `COc1ccc2nc3cc(Cl)ccc3c(NCCCN(CCCNc3c4ccc(Cl)cc4nc4ccc(OC)cc34)C(=O)CNC(=O)OC(C)(C)C)c2c1` shows cytotoxicity at 3.13 µM below 40%
Output: 1 (yes)
